Entry source: ChEMBL document CHEMBL3272315

test system: Rattus norvegicus; assay: Potentiation of angiotensin 2-induced of blood pressure in vagotomized and ganglion-blocked rat at 250 ng/kg/min, iv relative to before compound infusion; assay type: functional
Non-standard residues stand in square brackets, D forms with d. Residues, ends and D or L forms follow the SMILES beside them. Sar = CNCC(=O)O
test_readout: Ratio

1) CC[C@H](C)[C@H](NC(=O)[C@@H]1CCCN1C(=O)[C@H](Cc1cnc[nH]1)NC(=O)[C@@H](NC(=O)[C@H](Cc1ccc(O)cc1)N(C)C(=O)[C@@H](NC(=O)[C@H](CCCNC(=N)N)NC(=O)CNC)C(C)C)[C@@H](C)CC)C(=O)O = 2.14
2) CC[C@H](C)[C@H](NC(=O)[C@@H]1CCCN1C(=O)[C@H](Cc1cnc[nH]1)NC(=O)[C@@H](NC(=O)[C@H](Cc1ccc(O)cc1)NC(=O)[C@@H](NC(=O)[C@H](CCCNC(=N)N)NC(=O)[C@H](CC(=O)O)NC)C(C)C)[C@@H](C)CC)C(=O)O = 33.43
3) CC[C@H](C)[C@@H](C(=O)N[C@@H](Cc1cnc[nH]1)C(=O)N1CCC[C@H]1C(=O)N(C)[C@H](C(=O)O)[C@@H](C)CC)N(C)C(=O)[C@H](Cc1ccc(O)cc1)NC(=O)[C@@H](NC(=O)[C@H](CCCNC(=N)N)NC(=O)CNC)C(C)C = 0.62
4) CC[C@H](C)[C@H](NC(=O)[C@H](Cc1ccc(O)cc1)NC(=O)[C@@H](NC(=O)[C@H](CCCNC(=N)N)NC(=O)CNC)C(C)C)C(=O)N[C@@H](Cc1cnc[nH]1)C(=O)N1CCC[C@H]1C(=O)N[C@@H](CO)C(=O)O (H-[Sar]RVYIHPS-OH) = 11.15
5) CC[C@H](C)[C@H](NC(=O)[C@@H]1CCCN1C(=O)[C@H](Cc1c[nH]cn1)NC(=O)[C@H]([C@@H](C)CC)N(C)C(=O)[C@H](Cc1ccc(O)cc1)NC(=O)[C@@H](NC(=O)[C@H](CCCN=C(N)N)NC(=O)CNC)C(C)C)C(=O)O = 3.26
6) CC[C@H](C)[C@H](NC(=O)[C@H](Cc1ccc(O)cc1)NC(=O)[C@@H](NC(=O)[C@H](CCCN=C(N)N)NC(=O)CNC)C(C)C)C(=O)N[C@@H](Cc1c[nH]cn1)C(=O)N1CCC[C@H]1C(=O)N[C@H](C(=O)O)[C@@H](C)O (H-[Sar]RVYIHPT-OH) = 26.9
7) CC[C@H](C)[C@H](NC(=O)[C@H](Cc1ccc(O)cc1)NC(=O)[C@@H](NC(=O)[C@H](CCCNC(=N)N)NC(=O)CNC)C(C)C)C(=O)N[C@@H](Cc1cnc[nH]1)C(=O)N1CCC[C@H]1C(=O)N(C)[C@H](C(=O)O)[C@@H](C)CC = 2.99
